Entry source: patent US20260167721A1

- MEASUREMENT_TARGET: T1, recombinant human CD3 epsilon/delta heterodimer (human, UniProt P07766 23-126; P04234 22-105)
- T1 construct: Recombinant heterodimer used as analyte in Octet; also called hCD3 E/D; human CD3E/D
- T1 sequence (P07766 23-126, stated change not applied, chain 1 of 2): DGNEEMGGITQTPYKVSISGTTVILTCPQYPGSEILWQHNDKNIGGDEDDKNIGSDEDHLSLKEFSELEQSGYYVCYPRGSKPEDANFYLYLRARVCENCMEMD
- T1 sequence (P04234 22-105, stated change not applied, chain 2 of 2): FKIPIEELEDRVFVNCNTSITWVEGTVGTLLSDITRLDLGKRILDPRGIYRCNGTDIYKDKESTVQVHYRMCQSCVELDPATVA
- TEST_METHOD_NOTES: BLI (Octet), mAb 5 ug/mL on FAB2G sensor, hCD3 E/D 200-50 nM
ASSAY_METRIC: koff (s⁻¹)
Answer format: numeric, s⁻¹ implied, no suffix.

(Q) Please report the recorded koff for ABL-CD3-78 (antibody, V domains shown, mAb purified from hybridoma; chimeric AlivaMab IgG (human VH, CH1 and upper hinge; mouse middle hinge, CH2, CH3; human light chain)) VH: EVQLVESGGGLVKPGGSLRLSCAASGFTVSNYSMNWVRQAPGKGLEWVSCISRSSSYIYYADSVKGRFTISRDNAKNSLFLQMNSLRAEDTAVYYCARERWELLYFDYWGQGTLVTVSS VL: NFMLTQPHSVSESPGKTVTISCTRSSGSIASNYVQWYQQRPGSSPTTVIYEDNQRPSGVPDRFSGSIDSSSNSASLTISGLKTEDEADYYCQSFDGSNRVFGGGTKLTVL .
(A) 0.000568

(Q) Please do the same for ABL-CD3-75 (antibody, V domains shown, mAb purified from hybridoma; chimeric AlivaMab IgG (human VH, CH1 and upper hinge; mouse middle hinge, CH2, CH3; human light chain)) VH: EVQLVESGGGLVKPGGSLRLSCAASGFTFSTYSLNWVRQAPGKGLEWVSSISVSSRYIYFADSVKGRFTISRDNAKNSLYLQMNSLRAEDTAVYYCARDRRELLLDYWGQGTLVTVSS VL: SYELTQPPSVSVSPGQTARITCSGDALPKKYAYWYQQKSGQAPVLVIYEDSKRPSGIPERFSGSSSGTMATLTISGAQVEDEADYYCYSTDSSGNHNWVFGGGTKLTVL as well.
(A) 0.00726

(Q) How about this binder: ABL-CD3-80 (antibody, V domains shown, mAb purified from hybridoma; chimeric AlivaMab IgG (human VH, CH1 and upper hinge; mouse middle hinge, CH2, CH3; human light chain)) VH: EVQLVESGGGLVKPGGSLRLSCAASGFTFSGYSMNWVRQAPGKGLEWVSSISSRSRYIYYADSVQGRFTISRDNSKNSLFLQMNSLRAEDTAVYYCGRDWRELLLDYWGQGTLVTVSS VL: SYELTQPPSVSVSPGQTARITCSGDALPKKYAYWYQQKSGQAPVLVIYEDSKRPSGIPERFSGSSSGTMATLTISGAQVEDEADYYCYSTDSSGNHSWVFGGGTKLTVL
(A) 0.0108

(Q) Can you handle ABL-CD3-74 (antibody, V domains shown, mAb purified from hybridoma; chimeric AlivaMab IgG (human VH, CH1 and upper hinge; mouse middle hinge, CH2, CH3; human light chain)) VH: EVQLVESGGGLVKPGGSLRLSCAASGFTFSSYSMKWVRQAPGKGLEWVSSISSSSSYIYYADSVKGRFTISRDNAKNSLYLQMNSLRAEDTAVYYCARDRGELTLWYWGQGTLVTVSS VL: SYELTQPPSVSVSPGQTARITCSGDALPKKYAYWYQQKSGQAPVLVIYEDSKRPSGIPERFSGSSSGTMATLTISGAQVEDEADYYCYSTDSSGNHWVFGGGTKLTVL next?
(A) 0.026

(Q) Another binder to check: ABL-CD3-81 (antibody, V domains shown, mAb purified from hybridoma; chimeric AlivaMab IgG (human VH, CH1 and upper hinge; mouse middle hinge, CH2, CH3; human light chain)) VH: QVQLQESGPGLVKPSQTLSLTCTVSGGSISSGGYYWSWIRQHPGKGLEWIGYIYYSGSTYYNPSLKSRVTISVDTSKDQFSLKLSSVTAADTAVYYCARERKTSLPFDIWGQGTMVTVSS VL: NFMLTQPHSVSESPGKTVTISCTRSSGSIASNYVQWYQQRPGSSPTTVIYEDNQRPSGVPDRFSGSIDSSSNSASLTISGLKTEDEAYYYCQSFDSSNRVFGGGTKLTVL
(A) 0.107
